The measurements presented in this section are drawn from ChEMBL document CHEMBL1201862.

Test system: SW-620
Test: NCI tumour cell line growth inhibition, 48 h
Active and inactive are the calls of the source. No stated cut-off is given here; in the data, active = GI50 up to about 1.1 µM and inactive = higher.
measurement_kind: GI50

Prompt line: May I ask what GI50 has been recorded for Cc1ccccc1NC(=O)C(=O)C(C(=O)c1ccccc1F)C1OC(=O)c2ccccc21 (stereo not drawn) ?
Response line: 34.9 µM (inactive)

Prompt line: Subsequent entry: CCCCCCCCCC(=O)NC(CCC(=O)N(CCNC(=O)c1nc(-c2ccccc2)oc1-c1ccccc1)Cc1ccccc1)C(=O)O (stereo not drawn)
Response line: 23.3 µM (inactive)

Prompt line: And the next one, O=C1/C=C(/c2ccc(O)cc2)[C@@H](O)Cc2ccc(O)cc2O1 ?
Response line: > 100 µM (inactive)

Prompt line: And then CCN(CC)CCSc1nc2c(c(=N)n1-c1ccccc1)c(=S)n(-c1ccccc1)c(=S)n2-c1ccccc1 , what is it?
Response line: 1.67 µM (inactive)

Prompt line: Please do the same for CN(C)CCOc1ccc(-c2c(Oc3ccccc3)c(=O)oc3ccccc23)cc1 as well.
Response line: 11.4 µM (inactive)

Prompt line: Okay, and Clc1ccc2c(Cl)ncnc2c1I ?
Response line: 80 µM (inactive)

Prompt line: Also, Cc1ccc(C(=O)N(Cc2ccccc2)Cc2ccccc2)cc1/N=N/N(C)C please.
Response line: 43.1 µM (inactive)

Prompt line: Then what about the molecule C/C(=N\O)c1ccc2ccc3ccccc3c2c1 ?
Response line: 30.6 µM (inactive)

====

Assignment: determine reported GI50 for the given compounds.
System: HCC 2998
Experiment: NCI tumour cell line growth inhibition, 48 h
Calls of active or inactive are those of the source. Cut-off read from the data, not from the text of the source: active = GI50 up to about 1.1 µM and inactive = higher.

Prompt line: So what GI50 did COc1cc2c3cc1Oc1c(OC)c(OC)cc4c1C(=NCC4)Cc1ccc(cc1)Oc1cc(ccc1O)C[C@H]3N(C)CC2 get with HCC 2998?
Response line: 13.4 µM (inactive)

Prompt line: Also CCc1cccc(C)c1NC(=O)C(=O)Cc1nc2ccccc2s1 ?
Response line: > 100 µM (inactive)

Prompt line: What do we get for CCN(CC)C(=S)SC(C(=O)Nc1nnc(-c2ccc(Cl)cc2)o1)c1ccccc1 (centres undefined) ?
Response line: 3.41 µM (inactive)

Prompt line: For Oc1nc(-c2ccccc2)cc(-c2ccccc2O)n1 then?
Response line: > 100 µM (inactive)

Prompt line: Next record, please: O=C(Nc1ccccc1[N+](=O)[O-])C(=O)C(C(=O)c1ccccc1-c1ccccc1)C1OC(=O)c2ccccc21 (centres undefined)
Response line: 14.8 µM (inactive)

Prompt line: Moving on to the next compound: Cc1ccc2c(/C=C/c3ccc(N(C)C)cc3)ccnc2c1C
Response line: 27.9 µM (inactive)

Prompt line: // repeat for S=c1sc2ccccc2n1CN1CCN(Cc2ccccc2)CC1 and report
Response line: > 100 µM (inactive)

Prompt line: Do the same for CN1C(=O)C(C)(C)NS1(=O)=O please
Response line: > 100 µM (inactive)

Prompt line: Similarly, CC(=O)OC12C(C)=C(C)C(=O)N1c1ccccc1N2C(C)=O (centres undefined) ?
Response line: > 100 µM (inactive)

Prompt line: Another: O=C1CC(O)c2c(Cl)sc(Cl)c21 (centres undefined)
Response line: 27.2 µM (inactive)

Prompt line: # iterate: C[C@H]1C=C2C(=O)O[C@H]3CC[C@@H](C1)[C@@]23O
Response line: 13.8 µM (inactive)

Prompt line: Let us now turn to CC1(C)C2CC(c3ccncc3)ON2C(C)(C)N1O (centres undefined)
Response line: > 100 µM (inactive)

Prompt line: Another compound to check: COC(=O)CCN(CCC(=O)OC)C1CC1
Response line: > 100 µM (inactive)

Prompt line: // next record CN(C)C(=S)/N=c1\ss/c(=N\S(=O)(=O)c2ccccc2)n1-c1ccccc1
Response line: 38.8 µM (inactive)

Prompt line: Same read-out for Nc1nc(N)c(CCCCc2ccccc2)c(N)n1 ?
Response line: > 100 µM (inactive)

Prompt line: Moving on to the next compound: COc1ccc2oc3c(OC)c(OC)c(OC)cc3c(=O)c2c1
Response line: > 100 µM (inactive)

Prompt line: What do we get for CN1CC[C@]23c4c5ccc(O)c4OC2c2[nH]ncc2C[C@H]3[C@H]1C5 (some centres undefined) ?
Response line: > 100 µM (inactive)

Prompt line: # repeat for NC(=O)c1c([N+](=O)[O-])cc(C(F)(F)F)cc1[N+](=O)[O-]
Response line: 38.4 µM (inactive)

Prompt line: Try this compound too: C=CCN1/C(=C2\SC(=S)N(c3ccc(C)cc3)C2=O)Sc2c1ncn(C)c2=O
Response line: 47.6 µM (inactive)

Prompt line: Also O=C1Nc2ccccc2Nc2ccncc21 ?
Response line: > 100 µM (inactive)

Prompt line: Try this compound next: S=c1sc2cscc2s1
Response line: 18.7 µM (inactive)

Prompt line: Continue with CC(=N\N)/C(C)=N/N=C(C)/C(C)=N/N=C(C)/C(C)=N/N=C(C)/C(C)=N/N
Response line: > 100 µM (inactive)

Prompt line: Continue with COc1ccc(CC/N=C2\CCC(C(=O)NCCc3ccc(OC)c(OC)c3)N2)cc1OC (centres undefined)
Response line: > 100 µM (inactive)

Prompt line: Now consider CC(=O)O[C@H]1C[C@](C)(O)[C@@]23CC([C@@H](OC(=O)C(C)(C)O)[C@@H](OC(C)=O)C2(COC(=O)c2ccccc2)[C@H]1OC(C)=O)C(C)(C)O3 (some centres undefined) .
Response line: > 100 µM (inactive)

Prompt line: Here is the next compound: CC#CC(O)(C(=O)OC1CC2CCC(C1)N2C)C1CCCC1 (centres undefined)
Response line: > 100 µM (inactive)

Prompt line: // next record CCOC(=O)N1CCc2cc(OC)c(OC)c3c2c1cc1cc(OC)c(OC)cc13
Response line: 2.29 µM (inactive)

Prompt line: Try this compound next: Cc1ccc(C(=O)N(Cc2ccccc2)Cc2ccccc2)cc1/N=N/N(C)C
Response line: 29.6 µM (inactive)

Prompt line: Field entry: CN(C)C(=S)/N=c1\ssc(=S)n1Cc1ccccn1
Response line: 4.92 µM (inactive)

Prompt line: Now try NC(N)=NCCC(O)(P(=O)(O)O)P(=O)(O)O .
Response line: > 100 µM (inactive)

Prompt line: Similarly, c1ccc(-c2nc(-c3ccccc3SSc3ccccc3-c3nc(-c4ccccc4)nn3-c3ccccc3)n(-c3ccccc3)n2)cc1 ?
Response line: > 100 µM (inactive)

Prompt line: Same read-out for CCOC(=O)C1=CN2C(=N[C@H]3CCCC[C@@H]32)NC1=O ?
Response line: > 100 µM (inactive)

Prompt line: Ok, now C[C@]12CC/C(=N\OCCN3CCCCC3)C=C1CCC1C2CC[C@@]2(C)C1CC[C@]2(C)O (some centres undefined)
Response line: 9.27 µM (inactive)

Prompt line: Thanks! And CCCO[C@@H]1[C@@H](OC(C)=O)[C@@H](OC(C)=O)C(C)(C)/C=C/[C@H](C)C(=O)[C@@]2(OC(C)=O)C[C@@](C)(OC(C)=O)[C@H](OC(C)=O)[C@@H]2[C@H]2OC(=O)CC[C@@]12OC(=O)c1ccccc1 ?
Response line: 18.5 µM (inactive)

Prompt line: What would you report for Cc1cccc(/N=N/c2ccc(/N=N/c3c(O)ccc4ccccc34)cc2C)c1 ?
Response line: > 100 µM (inactive)

====

System: 786-0
Assay: NCI tumour cell line growth inhibition, 48 h
Active and inactive are the calls of the source. No stated cut-off is given here; in the data, active = GI50 up to about 1.1 µM and inactive = higher.
Record form. Attribute: GI50. Fill in for each entry.

Prompt line: # lookup: GI50 of COc1cc(C(=O)N[C@H]2CCc3cc(OC)c(OC)c(OC)c3-c3ccc(SC)c(=O)cc32)cc(OC)c1OC
Response line: 0.0223 µM (active)

Prompt line: Cool, now CCCCCCCCCC(=O)NC(CCC(=O)N(CCNC(=O)c1nc(-c2ccccc2)oc1-c1ccccc1)Cc1ccccc1)C(=O)O (stereo not given)
Response line: 17.7 µM (inactive)

Prompt line: Check CN1C(C(=O)Nc2ccccn2)=C(O)c2ccccc2S1(=O)=O too.
Response line: > 100 µM (inactive)

Prompt line: Likewise for COc1cccc2c1C(=O)c1c(O)c3c(c(O)c1C2=O)C[C@@](O)(C(=O)CO)C[C@@H]3OC1CC(N)C(OC)C(C)O1 (stereo not given in full) ?
Response line: 0.0327 µM (active)

Prompt line: Also C/C=C\C(CC(=O)NCCc1cn(C(=O)OCc2ccccc2)c2ccccc12)CC(=O)OC (stereo not given) ?
Response line: > 100 µM (inactive)

Prompt line: Then what about the compound N#Cc1c(-c2ccccc2)c(C#N)c(=S)n(C2OC(CO)C(O)C(O)C2O)c1O (stereo not given) ?
Response line: > 100 µM (inactive)

Prompt line: Would you kindly repeat that for CCc1n[nH]c(=O)n1/N=C(\C)c1ccccc1 ?
Response line: > 100 µM (inactive)

Prompt line: Repeat for the following compound: Cc1nc2ccccc2c(=O)n1/N=C(\N=N\c1cc(Cl)ccc1Cl)c1ccc(N(C)C)cc1
Response line: 73.5 µM (inactive)

Prompt line: Follow-up entry: c1cncc(C2N3CCCCC3[C@@H]3c4[nH]c5ccccc5c4CCN23)c1 (stereo not given in full)
Response line: > 100 µM (inactive)

Prompt line: Now the same for Cc1cc(=O)oc2cc(OC(=O)N(C)C)c(Cl)cc12
Response line: 87.5 µM (inactive)

Prompt line: Same lookup for CC(C)C(OC(=O)c1ccc(NCc2cc(O)ccc2O)cc1)C(C)C , please.
Response line: 1.14 µM (inactive)

Prompt line: # repeat for Nc1cc(CO)cc(Nc2c3ccccc3nc3ccccc23)c1
Response line: 16.7 µM (inactive)

Prompt line: Next: O=C1CN(C(=O)c2ccccc2)Cc2[nH]c3ccccc3c21
Response line: > 100 µM (inactive)

Prompt line: Repeat for the following compound: COc1cccc2cc(C(N)=O)c(=N)oc12
Response line: 31.7 µM (inactive)

Prompt line: Can you handle C1#Cc2ccccc2OCCOc2ccccc2C#Cc2ccccc2OCCOc2ccccc21 next?
Response line: 10.3 µM (inactive)
